assay: gradient 5% acetonitrile 3 min, to 50% in 2 min, to 85% in 15 min, held 3 min, 100 µL/min; conditions: column: Zorbax Extend-C18 2.1 x 50 mm; eluents: water / acetonitrile, 0.1% formic acid

| COMPOUND | RP-LC retention time |
| --- | --- |
| COc1ccc(S(=O)(=O)NCCc2cn(CC(C)C)c3ncccc23)cc1Cl | 962 s |
| O=C(NC1CCCCCCC1)C1CCN(S(=O)(=O)c2ccc(-c3noc(C4CC4)n3)cc2)CC1 | 1120 s |
| Cc1ccc(CNC(=O)CSCc2nc3cccnc3n2C2CCCCC2)o1 | 877 s |
| CC(NC(=O)C1CCN(c2cnc(N3CCCC3)nc2)CC1)c1ccc(F)cc1 (centres undefined) | 699 s |
| Cc1ccccc1-c1nc2cnccn2c1NCCC(=O)NC1CCCCC1 | 678 s |
| O=C(CCC(=O)N1c2ccccc2NC2=C(C(=O)CCC2)C1c1ccco1)Nc1ccccc1 (centres undefined) | 744 s |
| COc1ccccc1C1CC(=O)Nc2c(S(=O)(=O)c3ccccc3)csc21 (centres undefined) | 946 s |
| CCNC(=O)c1cc(N2CCCC2)nc2c(C)cccc12 | 702 s |
| CCCCC1CCC(C(=O)Nc2nc(-c3ccc4c(c3)NC(=O)CO4)c(C)s2)CC1 (centres undefined) | 1240 s |
| CCC1CCCCN1CCCNC(=O)c1cn(CCOC)c(=O)c2c1c1ccccc1n2C (centres undefined) | 631 s |
| COc1cccc(N2CCN(S(=O)(=O)c3ccsc3C(=O)NCC(C)C)CC2)c1 | 1000 s |
| Cc1ccc(-c2noc(CSc3nccn3-c3ccc(C)cc3)n2)cc1 | 1020 s |
| CCN1C(=O)c2cc(C(=O)Nc3cc(C)cc(C)c3)nn2CC1(C)C(=O)NC1CCCC1 (centres undefined) | 917 s |
| CCC(=O)NCc1csc(C2CCN(C(=O)C3CCC3)CC2)n1 | 614 s |
| COc1ccc(-c2nnc(Cc3nc(-c4ccc(C)c(C)c4)no3)o2)cc1 | 1110 s |
| CC(C)n1cnc2cc(CNC(=O)Cc3c[nH]c4ccccc34)ccc21 | 604 s |
| Clc1ccc(C(OCCN2CCCCC2)c2ccccc2)cc1 (centres undefined) | 850 s |
| COc1cc(-c2nc(C3CC(=O)N(c4ccc(F)cc4)C3)no2)cc(OC)c1OC (centres undefined) | 901 s |
| COCCNC(=O)c1nc(-c2ccnc(N3CCCCC3)c2)no1 | 612 s |
| C=CCNC(=O)c1sc(Nc2cccc(C)n2)nc1C | 697 s |
| Cc1nc(C)c(C(=O)Nc2nc(-c3ccc(Br)cc3)cs2)s1 | 1030 s |
| COc1ccc(N(Cc2nnc3n2CCCCC3)C(=O)Nc2ccccc2)cc1OC | 692 s |
| CC(=O)N(C)Cc1nc2ccccc2n1CC(=O)N1CCCC1 | 581 s |
| COc1cccc(-c2nc(CS(=O)(=O)CC(=O)N3CCN(c4ccccn4)CC3)c(C)o2)c1 | 631 s |
| COc1ccccc1NC(=O)C1CCN(S(=O)(=O)c2cc(C(=O)N3CCOCC3)cs2)CC1 | 779 s |
| Cc1cc2c(N3CCCC(C(=O)N4CCN(c5ccc(Cl)cc5)CC4)C3)nccc2s1 (centres undefined) | 799 s |
| CC(Oc1ccccc1)C(=O)N(C)CCc1noc(-c2ccccc2)n1 (centres undefined) | 903 s |
| COC(=O)c1c(-c2ccccc2)csc1NC(=O)C1CCN(C(C)=O)CC1 | 862 s |
| COc1cccc(NC(=O)NCCn2c(C(F)(F)F)nc3cccnc32)c1 | 698 s |
| COc1cccc(CC(=O)NC2CCN(c3cc(-c4cccs4)[nH]n3)C2)c1 (centres undefined) | 658 s |
| O=C(Cc1ccsc1)N1CCC2(CC1)N=C(c1ccccc1)NO2 | 774 s |
| COC(=O)c1ccc2c(=O)n(-c3ccc(C)c(C)c3)c(N3CCN(c4ccccn4)CC3)nc2c1 | 756 s |
| OC[C@H]1O[C@@H](n2cnc3c(NC4CCCCC4)ncnc32)[C@H](O)[C@@H]1O | 656 s |
| O=C(C1CCN(c2nc3ccc(-c4ccc(F)cc4)nc3s2)CC1)N1CCCCC1 | 1080 s |
| Cc1ccc(S(=O)(=O)N2CC(C(=O)NC3CCCC3)Oc3ccc(C)cc32)cc1 (centres undefined) | 1140 s |
| CC(C)c1cc(C2CCCN2C(=O)NC2CCCC2)on1 (centres undefined) | 823 s |
| CON=C(C(=O)N[C@@H]1C(=O)N2C(C(=O)O)=C(CSc3nnnn3C)CS[C@H]12)c1csc(N)n1 | 621 s |
| Cc1noc(-c2ccc(OC3CN(C(=O)c4cccn4C)C3)cc2)n1 | 898 s |
| COC(=O)c1ccc(NC(=O)N2CCCC2c2cccc(F)c2)cc1 (centres undefined) | 898 s |

The measured values listed here are drawn from the METLIN SMRT retention time set (Domingo-Almenara et al. 2019).
